Data origin: PubChem BioAssay (NCATS)

# ASSAY PROTOCOL: qHTS assay for small molecule antagonists of retinoid X receptor alpha signaling (AID 588546);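 note: cells stimulated with 9-cis-retinoic acid as agonist; % is set by controls: 0 for no effect and ±100 for the full control effect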
# MEASUREMENT PARAMETERS: HEK293T RXRa-UAS-bla, beta-lactamase ratio, antagonist mode; measured here: W530 green channel, cytotoxicity proxy
Records with an inconclusive call do not appear.
MEASURED ENDPOINT: max response (%)
Response body: numeric value in %, unit text excluded.

Here's what some known entries look like.
[
  {
    "MOLECULE": "Cc1nnc(NS(=O)(=O)c2ccc(N)cc2)s1",
    "MEASURED ENDPOINT": "max response",
    "UNITS OF MEASURE": "%",
    "EXPERIMENTAL VALUE": -2.81
  },
  {
    "MOLECULE": "OC(Cn1cncn1)(Cn1cncn1)c1ccc(F)cc1F",
    "MEASURED ENDPOINT": "max response",
    "UNITS OF MEASURE": "%",
    "EXPERIMENTAL VALUE": -2.01
  },
  {
    "MOLECULE": "N[C@@H](Cc1ccc(O)c(O)c1)C(=O)O",
    "MEASURED ENDPOINT": "max response",
    "UNITS OF MEASURE": "%",
    "EXPERIMENTAL VALUE": -19.3
  }
]

Prompt: Value lookup for max response; key = Cc1cc(NS(=O)(=O)c2ccc(N)cc2)no1
Completion: -9.35

Prompt: Value lookup for max response; key = CC(=O)CC(c1ccccc1)c1c(O)c2ccccc2oc1=O (stereo not drawn)
Completion: -2.55

Prompt: Value lookup for max response; key = CC1=NN(c2ccccc2)C(=O)C1
Completion: 3.18

Prompt: Value lookup for max response; key = C[C@]12C=CC(=O)C=C1CC[C@@H]1[C@@H]2C(=O)C[C@@]2(C)[C@H]1CC[C@]2(O)C(=O)CO
Completion: 4.53

Prompt: Value lookup for max response; key = NNC(=O)c1ccncc1
Completion: 1.75
